Measured values drawn from patent US20030148269A1 for this set.

- testedOn: stromelysin catalytic domain (SCD) (Homo sapiens, UniProt P08254)
- Sequence (P08254 100-273): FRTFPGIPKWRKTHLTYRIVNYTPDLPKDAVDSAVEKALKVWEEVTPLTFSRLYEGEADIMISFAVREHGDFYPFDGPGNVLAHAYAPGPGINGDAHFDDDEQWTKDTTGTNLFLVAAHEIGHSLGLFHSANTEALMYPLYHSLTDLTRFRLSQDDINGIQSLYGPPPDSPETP
measuredAttribute: Ki

q: Please look up its Ki: N#Cc1ccc(-c2ccc(O)cc2)cc1 [4′-hydroxy-1,1-biphenyl-4-carbonitrile]
a: ~1000 µM

---

- testedOn: erythromycin resistant methylase (Erm-AM) (Streptococcus pneumoniae, UniProt P21236)
- Construct: made in house; host or cells: E. coli BL21(DE3)/pV4, pET-24(+)
- Sequence (P21236 whole entry, change not shown): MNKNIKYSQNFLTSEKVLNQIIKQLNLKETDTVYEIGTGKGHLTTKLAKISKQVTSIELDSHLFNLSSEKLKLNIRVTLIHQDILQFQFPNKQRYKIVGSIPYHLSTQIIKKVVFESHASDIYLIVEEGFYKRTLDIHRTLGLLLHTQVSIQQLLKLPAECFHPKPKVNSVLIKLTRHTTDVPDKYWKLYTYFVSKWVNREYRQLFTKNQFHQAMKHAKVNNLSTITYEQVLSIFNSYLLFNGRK
- Type: binding
- measurementParameters: 25-compound library; mass spectrometry of five fractions; with Erm AM vs buffer only
measuredAttribute: Binding to Erm AM from concentration gradient after centrifugation

>>> testresult("Nc1nc(NC2CCCCC2)nc(N2CCCCC2)n1")
"strongly bind"
>>> testresult("Nc1nc(NC2CCCCC2)nc(-c2ccc(O)cc2)n1")
"strongly bind"
>>> testresult("CN(CCCc1c(O)cc(Cl)cc1Cl)c1nc(N)nc(NC2CCCCC2)n1")
"strongly bind"
